# Tgt: TNF-alpha (UniProt P01375 77-233)
# Sequence (P01375 77-233): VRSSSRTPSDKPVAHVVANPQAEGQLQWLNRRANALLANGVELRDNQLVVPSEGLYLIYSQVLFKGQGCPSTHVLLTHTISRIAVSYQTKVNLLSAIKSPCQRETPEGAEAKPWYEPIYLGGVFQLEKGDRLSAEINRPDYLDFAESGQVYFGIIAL
# Assay Text: graphene FET
Measurement Name: Kd (nM)
The answer is to be given in nM; state only the numeric part.

Task: Which Kd value is on record for TGGTGGATGGCGCAGTCGGCGACAA (ssDNA, 5'-NH2 (coupled to PASE on graphene)) [VR11] ?
Output: 15.1
